# Tested on: MDA-MB-436
# MEASUREMENT_PROTOCOL: normalised viability (% of control), CellTiter-Blue; higher = more viable cells (about 100 = DMSO control)
# CONDITION_INFO: 100 nM; incubation time: 72 h
MEASUREMENT_LABEL: normalised viability (%)
Only the number, expressed in %, is required.

Form: compound = COC(=O)c1ccc2c(c1)NC(=O)/C2=C(\Nc1ccc(N(C)C(=O)CN2CCN(C)CC2)cc1)c1ccccc1 ; normalised viability = 98.9

Short answer for COCC1(CO)C(=O)C2CCN1CC2 (stereo not given) : normalised viability was 101

Briefly, normalised viability measured for CN(C)c1nc(N(C)C)nc(N(C)C)n1 : 89.5

The value of normalised viability measured for the compound CNC(=O)c1cc(Oc2ccc(NC(=O)Nc3ccc(Cl)c(C(F)(F)F)c3)c(F)c2)ccn1 turned out to be 121

Reported normalised viability for Nc1cc(C(F)(F)F)c(-c2cc(N3CCOCC3)nc(N3CCOCC3)n2)cn1 was 90.2

###

# System: HCC1599
# MEASUREMENT_PROTOCOL: normalised response (% of control), CellTiter-Glo; higher = more viable cells (100 = DMSO, 0 = benzethonium chloride kill control)
# CONDITION_INFO: incubation time: 72 h
MEASUREMENT_LABEL: normalised response

For CO[C@H]1C[C@@H]2CC[C@@H](C)[C@@](O)(O2)C(=O)C(=O)N2CCCC[C@H]2C(=O)O[C@H]([C@H](C)C[C@@H]2CC[C@@H](OP(C)(C)=O)[C@H](OC)C2)CC(=O)[C@H](C)/C=C(\C)[C@@H](O)[C@@H](OC)C(=O)[C@H](C)C[C@H](C)/C=C/C=C/C=C/1C [Ridaforolimus] (0.01 nM) the compound record lists normalised response as 113%

The recorded normalised response for entry COCC[n+]1c2c(n(Cc3cnccn3)c1C)C(=O)c1ccccc1C2=O [YM155] (10 nM) equals 43.3%

Lab note: measured normalised response of Cc1ccc(NC(=O)c2ccc(CN3CCN(C)CC3)cc2)cc1Nc1nc(-c2cccnc2)cs1 [Masitinib] (1000 nM) was 106%

Form: compound = O=C(/C=C/c1cccc(S(=O)(=O)Nc2ccccc2)c1)NO [Belinostat] (10 nM) ; normalised response = 96.5%

Value of measured normalised response for the entry O=C(Nc1cccnc1)N1CCC(Cc2cccc(Oc3ccc(C(F)(F)F)cn3)c2)CC1 [PF-3845] (10 nM) : 96.9%

// recorded normalised response for O=C(Nc1ccncc1)C(=O)c1cn(Cc2ccc(Cl)cc2)c2ccccc12 [Indibulin] (1 nM) : 113%

###

# Test system: CAL-51
# MEASUREMENT_PROTOCOL: normalised response (% of control), CellTiter-Glo; higher = more viable cells (100 = DMSO, 0 = benzethonium chloride kill control)
# CONDITION_INFO: incubation time: 72 h
Assign normalised response to each entry below.
// units = %; emit number, no label

The molecule listed as CN(C)c1nc(N(C)C)nc(N(C)C)n1 [Altretamine] (100 nM) shows normalised response equal to 107

Measured normalised response of CN(C)CCOc1ccc(/C(=C(/CCCl)c2ccccc2)c2ccccc2)cc1 [Toremifene] (100 nM) : 100

Kindly note the recorded normalised response for O=C(/C=C/c1cccc(S(=O)(=O)Nc2ccccc2)c1)NO [Belinostat] (100 nM) , which is 63.4

get_value(item= CO[C@H]1C[C@@H]2CC[C@@H](C)[C@@](O)(O2)C(=O)C(=O)N2CCCC[C@H]2C(=O)O[C@H]([C@H](C)C[C@@H]2CC[C@@H](OP(C)(C)=O)[C@H](OC)C2)CC(=O)[C@H](C)/C=C(\C)[C@@H](O)[C@@H](OC)C(=O)[C@H](C)C[C@H](C)/C=C/C=C/C=C/1C [Ridaforolimus] (1 nM) , readout=normalised response) returns 90.9

Entry COc1cc2/c(=N/c3ccc(Br)cc3F)nc[nH]c2cc1OCC1CCN(C)CC1 [Vandetanib] (10 nM) , normalised response reported as 87.1

CC(C)C[C@@H](C(=O)N[C@H](C(=O)OC1CCCC1)c1ccccc1)[C@H](O)C(=O)NO [Tosedostat] (100 nM) has a reported normalised response of 77.9

Per the record, O=C(Nc1cccnc1)N1CCC(Cc2cccc(Oc3ccc(C(F)(F)F)cn3)c2)CC1 [PF-3845] (100 nM) has normalised response of 106

Reported normalised response of c1ccc2c(CCNc3ccc(Nc4ccncc4)cc3)c[nH]c2c1 [Serdemetan] (100 nM) : 84.5

###

# Tested on: DU-4475
# MEASUREMENT_PROTOCOL: normalised viability (% of control), CellTiter-Blue; higher = more viable cells (about 100 = DMSO control)
# CONDITION_INFO: incubation time: 72 h
Task for the reader: assign each of the following compounds its reported normalised viability.
Return type: number; implicit unit %.

The value of normalised viability measured for the compound CC(C)C[C@@H](C(=O)N[C@H](C(=O)OC1CCCC1)c1ccccc1)[C@H](O)C(=O)NO [Tosedostat] (1000 nM) turned out to be 51

Value of measured normalised viability for the entry CN(C)CCOc1ccc(/C(=C(/CCCl)c2ccccc2)c2ccccc2)cc1 [Toremifene] (1000 nM) : 97.4

Record COCC1(CO)C(=O)C2CCN1CC2 (centres undefined) [Prima-1 Met] (1000 nM) , field normalised viability: 108

Please fill in: normalised viability reported for Cc1cc(Nc2cc(CN3CCOCC3)c3nc(C)c(Cc4ccc(Cl)cc4F)n3n2)n[nH]1 (1000 nM) = 94

###

# Test system: HDQ-P1
# MEASUREMENT_PROTOCOL: normalised response (% of control), CellTiter-Glo; higher = more viable cells (100 = DMSO, 0 = benzethonium chloride kill control)
# CONDITION_INFO: incubation time: 72 h
Exercise: for every item that follows, state its recorded normalised response.
Numbers only; they are read as %.

// returns normalised response for N#Cc1ccc(COC[C@H]2O[C@@H](n3c(NCc4ccc(Cl)c(Cl)c4)nc4c(N)ncnc43)[C@H](O)[C@@H]2O)cc1 (1 nM) with HDQ-P1; value = 108

Entry O=C(Nc1cccnc1)N1CCC(Cc2cccc(Oc3ccc(C(F)(F)F)cn3)c2)CC1 [PF-3845] (1 nM) : normalised response on HDQ-P1 = 103

Here O=C(/C=C/c1cccc(S(=O)(=O)Nc2ccccc2)c1)NO [Belinostat] (1000 nM) was tested on HDQ-P1, and its normalised response came to 68.8

Tested on HDQ-P1: COc1cc2c(NC3CCN(C(C)C)CC3)nc(N3CCC(F)(F)CC3)nc2cc1OCCCN1CCCC1 [UNC0642] (10 nM) . Observed normalised response: 97.4

Reading of normalised response for O=C(Nc1ccncc1)C(=O)c1cn(Cc2ccc(Cl)cc2)c2ccccc12 [Indibulin] (1000 nM) with HDQ-P1: 80.1

Let me check: O=P1(N(CCCl)CCCl)NCCCO1 (stereo not drawn) [Cyclophosphamide] (4 nM) , system HDQ-P1, measured normalised response is 97.7

Tested system HDQ-P1; normalised response recorded for Cc1cc(Nc2cc(CN3CCOCC3)c3nc(C)c(Cc4ccc(Cl)cc4F)n3n2)n[nH]1 [Gandotinib] (1 nM) was 97.3

The value of normalised response recorded for CN(C)c1nc(N(C)C)nc(N(C)C)n1 [Altretamine] (1 nM) when tested on HDQ-P1 reads 101

###

Give measured drug sensitivity score for each item. Keep answers brief.
# Tested on: Hs578T
# MEASUREMENT_PROTOCOL: drug sensitivity score (DSS), CellTiter-Blue viability (DSS (AUC-based score)); higher = stronger viability inhibition; extreme values may be limits of the assay
# CONDITION_INFO: incubation time: 72 h
Just the number, please, no unit attached.

Hey, Hs578T data for NC(=O)c1ccc(I)c([N+](=O)[O-])c1 : drug sensitivity score came out at 0

Result for COc1cc(OC2CCN(C)CC2)ccc1Nc1ncc2c(n1)n(C1CCCC1)c(=O)n2C , tested on Hs578T, drug sensitivity score: 0

I looked up Nc1cc(C(F)(F)F)c(-c2cc(N3CCOCC3)nc(N3CCOCC3)n2)cn1 and its drug sensitivity score for Hs578T was 5.79

N#Cc1ccc(COC[C@H]2O[C@@H](n3c(NCc4ccc(Cl)c(Cl)c4)nc4c(N)ncnc43)[C@H](O)[C@@H]2O)cc1 on Hs578T gives drug sensitivity score = 0

Reported drug sensitivity score (Hs578T) for entry C=C1C[C@@H]2[C@H](CC[C@]3(C)C(=O)CC[C@@H]23)[C@@]2(C)C=CC(=O)C=C12 is 0

Sample Oc1ccc2c(c1)CC[C@H](c1ccccc1)[C@@H]2c1ccc(OCCN2CCCC2)cc1 , system: Hs578T. Its drug sensitivity score is 0

Record COCC[n+]1c2c(n(Cc3cnccn3)c1C)C(=O)c1ccccc1C2=O has Hs578T drug sensitivity score equal to 22.6

Recorded drug sensitivity score for O=C(Nc1ccncc1)C(=O)c1cn(Cc2ccc(Cl)cc2)c2ccccc12 on Hs578T was 11.3
